Origin of measurements: patent US20120040951A1

Parameter pEC50: see the listing below.
- Test system: phospho-ERK in melanoma derived WM-266-4 cells
- measurement.protocol: Mechanistic cellular assay for Raf kinase activity (phospho-ERK, Bio-Plex)
- Assay type: cell-based
- test.settings: Homo sapiens, treated 1-2 hr at 37° C., serum free medium, read-out: pERK EC50
pEC50: −log10 of the molar value.

Recorded results for 5 molecules are shown here.
>>> print(df.to_string())
                                   molecule  reported_endpoint  measured_value
0  CC(C)Cn1cnc2cnc(C(=O)NC(C)c3cnc(Nc4ccc(C(F)(F)F)cc4)s3)cc21 (stereo not drawn) [Example 15]              pEC50          ≥ 7.00
1  C[C@@H](NC(=O)c1cccc(N2CCCCC2)n1)c1ncc(C(=O)Nc2cc(C(F)(F)F)c(Cl)cn2)s1 [Example 94]              pEC50    5.00 to 6.00
2  C[C@@H](NC(=O)c1nc(NC(=O)OC(C)(C)C)cn1C)c1ncc(C(=O)Nc2cc(C(F)(F)F)c(Cl)cn2)s1 [Example 138]              pEC50    5.00 to 6.00
3  C[C@@H](NC(=O)c1cc2c(cn1)ncn2C1CNC1)c1cnc(Nc2ccc(C(F)(F)F)cc2)s1 [Example 27]              pEC50    6.00 to 7.00
4  CC(NC(=O)c1cc2c(cn1)ncn2C1CCC1)c1cnc(Nc2ccc(C(F)(F)F)cc2)s1 (stereo not drawn) [Example 14]              pEC50          ≥ 7.00

Summary line: Cc1ncsc1C(=O)N[C@H](C)c1ncc(C(=O)Nc2cc(C(F)(F)F)c(Cl)cn2)s1 [Example 99] , phospho-ERK in melanoma derived WM-266-4 cells, reported pEC50 = 5.00 to 6.00

Summary line: C[C@@H](NC(=O)c1cc2c(cn1)ncn2[C@@H]1CCNC1)c1cnc(Nc2ccc(C(F)(F)F)cc2)s1 [Example 26] , phospho-ERK in melanoma derived WM-266-4 cells, reported pEC50 = 6.00 to 7.00

Summary line: CCN1CC(n2cnc3cnc(C(=O)NC(C)c4cnc(Nc5ccc(C(F)(F)F)nc5)s4)cc32)C1 (stereo not drawn) [Example 294] , phospho-ERK in melanoma derived WM-266-4 cells, reported pEC50 = 6.00 to 7.00

---

Parameter pEC50: see the listing below.
- System: phospho-ERK in melanoma derived WM-266-4 cells
- measurement.protocol: Mechanistic cellular assay for Raf kinase activity (phospho-ERK, Bio-Plex)
- Assay type: cell-based
- test.settings: Homo sapiens, treated 1-2 hr at 37° C., serum free medium, read-out: pERK EC50
pEC50: −log10 of the molar value.

Recorded results for 2 compounds are shown here.
>>> df
                                   compound  reported_endpoint  measured_value
0  Cc1cc2nc(NC(=O)c3cc([C@@H](C)NC(=O)c4cnn5ccccc45)no3)[nH]c2cc1C [Example 219]              pEC50    6.00 to 7.00
1  C[C@@H](NC(=O)c1cnn(-c2ccccc2)c1)c1ncc(C(=O)Nc2cc(C(F)(F)F)c(Cl)cn2)s1 [Example 117]              pEC50    5.00 to 6.00

So for CCn1cnc2cnc(C(=O)N[C@H](C)c3cnc(Nc4ccc(C(F)(F)F)cc4)s3)cc21 [Example 20] , the logged pEC50 turned out to be ≥ 7.00

So for C[C@@H](NC(=O)c1cnc2n1CCCN2)c1ncc(C(=O)Nc2cc(C(F)(F)F)c(Cl)cn2)s1 [Example 166] , the logged pEC50 turned out to be ≥ 7.00

So for C[C@@H](NC(=O)c1cn(-c2ccncc2)cn1)c1ncc(C(=O)Nc2cc(C(F)(F)F)c(Cl)cn2)s1 [Example 148] , the logged pEC50 turned out to be 5.00 to 6.00

So for C[C@@H](NC(=O)c1cc2nc[nH]c2cn1)c1ncc(C(=O)Nc2cc(C(F)(F)F)c(Cl)cn2)s1 [Example 39] , the logged pEC50 turned out to be ≥ 7.00

So for CC(NC(=O)c1cc2c(cn1)ncn2C)c1ncc(C(=O)Nc2cc(C(F)(F)F)c(Cl)cn2)s1 (stereo not shown) [Example 40] , the logged pEC50 turned out to be ≥ 7.00
